Assay: Solubility of the compound in phosphate buffer of pH 2 after 24 hrs by RP-HPLC analysis
Format: physicochemical
Quantity Name: solubility at 24 h
The answer should read as a number with its unit following.

QUERY: Look up solubility at 24 h for this compound: "CNC(=O)Nc1sc2c(C)cc(NS(=O)(=O)c3cccs3)cc2c1C(N)=O"
RESULT: 5.3 µM

QUERY: # query: solubility at 24 h of entry "CNC(=O)Nc1sc2c(C(C)C)cc(NS(=O)(=O)c3ccn(C)n3)cc2c1C(N)=O"
RESULT: 4.2 µM

QUERY: Need solubility at 24 h of "CNC(=O)Nc1sc2c(C(C)C)cc(NS(=O)(=O)c3ccco3)cc2c1C(N)=O" , thanks.
RESULT: 3.3 µM

QUERY: Need solubility at 24 h, item "CNC(=O)Nc1sc2c(C(C)C)cc(NS(=O)(=O)c3ccccc3)cc2c1C(N)=O"
RESULT: 1.3 µM

QUERY: Give its solubility at 24 h value. Item: "CCCS(=O)(=O)Nc1cc(C(C)C)c2sc(NC(=O)NC)c(C(N)=O)c2c1"
RESULT: 2.8 µM

More entries:
QUERY: # get_value(readout='solubility at 24 h', item= "Cc1cc(Nc2cc(N3CCN(C)CC3)nc(Sc3ccc(NC(=O)C4CC4)cc3)n2)[nH]n1" )
RESULT: 120 µM

QUERY: Give the measured solubility at 24 h of "CCS(=O)(=O)Nc1cc(C(C)C)c2sc(NC(=O)NC)c(C(N)=O)c2c1" .
RESULT: 11.4 µM

QUERY: I would be grateful if you could share the reported solubility at 24 h for "CNC(=O)Nc1sc2c(C3CC3)cc(NS(=O)(=O)c3ccn(C)n3)cc2c1C(N)=O" .
RESULT: 3.7 µM
